FYI, the data here is from ChEMBL document CHEMBL1201862.

Molecular target: UniProtKB Q99705
Sequence (Q99705 whole entry): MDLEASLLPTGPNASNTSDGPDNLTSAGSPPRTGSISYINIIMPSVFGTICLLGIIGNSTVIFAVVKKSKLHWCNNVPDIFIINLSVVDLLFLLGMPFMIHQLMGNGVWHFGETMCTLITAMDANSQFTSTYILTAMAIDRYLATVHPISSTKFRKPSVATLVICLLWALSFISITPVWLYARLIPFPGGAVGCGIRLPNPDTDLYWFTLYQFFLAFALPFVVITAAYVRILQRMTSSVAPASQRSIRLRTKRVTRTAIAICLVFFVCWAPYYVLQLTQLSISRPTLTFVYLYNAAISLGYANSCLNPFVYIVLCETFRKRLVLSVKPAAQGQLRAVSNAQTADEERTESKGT
Experiment: Fluorescence-based counterscreen for antagonists of the G-protein coupled receptor 7 (GPR7): cell-based high throughput dose response assay to identify antagonists of the melanin-concentrating hormone receptor 1 (MCHR1).
Assay type: functional
Catalogue of IC50 readings, one per entry.

Solved entries:
{"columns": ["molecule", "target of assay", "measured parameter", "recorded result"],
 "data": [
  ["CCOc1ccc([N+](=O)[O-])cc1CNC1CCCCCCC1", "UniProtKB Q99705", "IC50", "12.6 µM (not active)"],
  ["Cc1cc([N+](=O)[O-])cc(C)c1OCC(=O)N/N=C/c1ccc(OC(=O)c2ccccc2)cc1", "UniProtKB Q99705", "IC50", "> 43.8 µM (not active)"]
]}

Give me measured IC50, please, for this molecule: COc1ccc(C2CC2/C(=N/O)c2ccccn2)cc1 (centres undefined)
> 43.8 µM (not active)

Indicate the recorded IC50 value for this molecule: COc1ccc(C(CNC(=O)COc2ccc(Cl)c(C)c2)N2CCCCC2)cc1 (centres undefined)
11.3 µM (not active)

###

Molecular target: UniProtKB P9WHJ3
Test: Fluorescence Cell-Free Homogeneous Dose Retest to Identify Inhibitors of RecA-Intein Splicing Activity. [Related pubchem assays (depositor defined):AID2097, AID2223, AID489010, AID492950]
Format: functional
The source made the active and inactive calls.
Permitted responses: t (active), f (inactive)

Completed entries (count: 7):
{"columns": ["compound", "label value"],
 "data": [
  ["O=C1C(Cl)=C(N2CCCCC2)C(=O)N1c1ccccc1", "t"],
  ["O=C1c2ccccc2-c2nnc(-c3ccc(O)cc3)cc21", "t"],
  ["CN(CCC#N)C(=O)Cn1nc(Cc2ccncc2)c2ccccc2c1=O", "f"],
  ["Cc1cccc(CSC(Nc2ccc(F)cc2)=C(C#N)C#N)c1", "t"],
  ["CC(C)(C)n1nnnc1C(c1cccs1)N(Cc1cccnc1)Cc1ccccc1Cl (centres undefined)", "t"],
  ["Cc1ccc2[nH]c3c(c2c1)CN(C(=O)CN1CCSCC1)CC3", "t"],
  ["COC1(OC)C(/C=C/c2ccc(C)cc2)C(C#N)(C#N)C1(OC)OC (centres undefined)", "f"]
]}

Below: the item to evaluate.
In this assay, the call recorded for CSc1nnc(NC(=O)c2nc(S(=O)(=O)Cc3ccc(C)cc3)ncc2Cl)s1 was what?
t

###

// IC50 lookup, one value per entry
Molecular target: Genome polyprotein (dengue virus type 2)
Sequence (P29990 2492-3391 limits assumed): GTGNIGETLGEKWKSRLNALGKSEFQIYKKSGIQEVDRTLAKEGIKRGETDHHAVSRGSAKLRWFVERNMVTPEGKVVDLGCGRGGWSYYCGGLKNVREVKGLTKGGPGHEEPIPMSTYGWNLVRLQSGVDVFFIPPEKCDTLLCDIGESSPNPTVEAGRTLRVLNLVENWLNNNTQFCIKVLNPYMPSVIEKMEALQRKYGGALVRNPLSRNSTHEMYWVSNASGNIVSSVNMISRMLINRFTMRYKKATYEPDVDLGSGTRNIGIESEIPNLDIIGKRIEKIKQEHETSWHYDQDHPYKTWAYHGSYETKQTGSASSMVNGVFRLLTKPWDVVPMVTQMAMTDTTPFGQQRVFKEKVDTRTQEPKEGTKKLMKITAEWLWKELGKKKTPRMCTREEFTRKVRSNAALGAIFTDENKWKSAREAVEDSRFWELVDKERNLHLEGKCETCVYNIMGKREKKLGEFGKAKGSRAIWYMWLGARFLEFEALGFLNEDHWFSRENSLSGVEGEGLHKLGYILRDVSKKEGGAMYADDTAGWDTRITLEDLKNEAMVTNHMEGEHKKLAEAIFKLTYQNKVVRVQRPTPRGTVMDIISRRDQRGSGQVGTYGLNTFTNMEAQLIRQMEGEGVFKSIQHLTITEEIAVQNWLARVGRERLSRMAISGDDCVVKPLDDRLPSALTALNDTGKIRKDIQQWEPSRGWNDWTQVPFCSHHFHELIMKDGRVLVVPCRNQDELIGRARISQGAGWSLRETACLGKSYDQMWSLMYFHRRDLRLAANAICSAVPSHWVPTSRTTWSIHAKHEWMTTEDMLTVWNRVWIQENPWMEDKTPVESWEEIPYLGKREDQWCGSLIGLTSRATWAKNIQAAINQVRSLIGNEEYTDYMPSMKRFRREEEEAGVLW
Test: Dengue-2 NS5 methyltransferase inhibitors, primary screen, biochemical, confirmation dose response (AID 588689)
Assay type: functional
Active and inactive are the calls of the source.

Example entries begin here.
{"columns": ["compound", "target of assay", "recorded result"],
 "data": [
  ["CC(C(=O)Nc1ccc(O)c(C(=O)O)c1)N1C(=O)/C(=C/c2cccs2)SC1=S (configuration not stated)", "Genome polyprotein (dengue virus type 2)", "41.1 µM (active)"],
  ["O=C(O)c1cccc(NC2=C(Cl)C(=O)c3ccccc3C2=O)c1", "Genome polyprotein (dengue virus type 2)", "15.6 µM (active)"],
  ["CN(C)c1ccc(Cc2cc3c(O)ccc(O)c3cc(Cc3ccc(N(C)C)cc3)c2=O)cc1", "Genome polyprotein (dengue virus type 2)", "44.1 µM (active)"],
  ["O=C1C(Cl)=C(N2CCCCC2)C(=O)N1c1ccccc1", "Genome polyprotein (dengue virus type 2)", "66.9 µM (active)"],
  ["O=C(O)CN1C(=O)/C(=C2\\SC(=S)N(C(Cc3ccccc3)C(=O)O)C2=O)c2ccccc21 (configuration not stated)", "Genome polyprotein (dengue virus type 2)", "42 µM (active)"],
  ["Cc1[nH]n(-c2ccccc2)c(=O)c1C(c1cccc([N+](=O)[O-])c1O)c1c(C)[nH]n(-c2ccccc2)c1=O", "Genome polyprotein (dengue virus type 2)", "31.6 µM (active)"]
]}

Give the reported value of IC50 for this record: CSc1nnc(NC(=O)c2nc(S(=O)(=O)Cc3ccc(C)cc3)ncc2Cl)s1
40.5 µM (active)

###

Known AC50 of a selection of compounds
Target: FAD-linked sulfhydryl oxidase ALR (Homo sapiens)
Sequence (P55789 whole entry): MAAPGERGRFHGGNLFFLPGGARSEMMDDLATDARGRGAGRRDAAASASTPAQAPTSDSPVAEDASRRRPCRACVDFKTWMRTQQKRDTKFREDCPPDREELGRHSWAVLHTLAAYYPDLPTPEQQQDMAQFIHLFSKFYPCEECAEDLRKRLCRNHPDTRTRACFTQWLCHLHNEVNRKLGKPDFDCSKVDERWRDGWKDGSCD
Test: inhibitors of human ALR sulfhydryl oxidase, dose response, biochemical, H2O2 detection, luminescence, cherry-pick (AID 493248)
Activity calls are given as the source filed them.

Here's what some known entries look like.
{"columns": ["compound", "recorded result"],
 "data": [
  ["COc1ccc(C(=O)Oc2ccc(/C=N/O)cc2)cc1", "0.247 µM (active)"],
  ["O=C(NCc1cccnc1)C(=O)NCC(c1ccco1)N1CCN(c2ccccc2)CC1 (stereo not given)", "2.78 µM (active)"]
]}

We now examine a further compound.
Given the compound NNC(=O)c1ccc(O)cc1O , write its reported AC50.
16 µM (active)

###

Molecular target: Large T antigen (Simian virus 40);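 also: Confirmatory-stage PubChem screen for compounds that inhibit SV40 T antigen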
Sequence (P03070 whole entry): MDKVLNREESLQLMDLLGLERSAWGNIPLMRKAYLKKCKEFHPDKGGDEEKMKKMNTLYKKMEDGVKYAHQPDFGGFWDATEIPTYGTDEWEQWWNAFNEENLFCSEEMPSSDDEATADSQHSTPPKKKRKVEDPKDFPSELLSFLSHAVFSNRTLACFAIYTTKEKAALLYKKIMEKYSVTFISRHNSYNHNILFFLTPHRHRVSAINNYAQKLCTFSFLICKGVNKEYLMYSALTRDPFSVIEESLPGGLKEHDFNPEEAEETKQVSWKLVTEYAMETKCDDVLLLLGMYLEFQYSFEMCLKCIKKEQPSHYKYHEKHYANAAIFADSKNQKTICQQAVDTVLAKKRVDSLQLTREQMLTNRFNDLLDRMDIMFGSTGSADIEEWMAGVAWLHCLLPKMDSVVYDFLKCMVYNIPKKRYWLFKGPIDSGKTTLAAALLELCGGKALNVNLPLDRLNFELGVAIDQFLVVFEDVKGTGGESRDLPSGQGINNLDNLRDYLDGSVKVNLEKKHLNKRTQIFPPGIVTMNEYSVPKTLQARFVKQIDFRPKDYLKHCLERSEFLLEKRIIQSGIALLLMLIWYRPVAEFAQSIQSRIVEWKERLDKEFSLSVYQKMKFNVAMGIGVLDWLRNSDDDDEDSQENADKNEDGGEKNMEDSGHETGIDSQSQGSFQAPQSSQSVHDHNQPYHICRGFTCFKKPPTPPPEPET
Type: functional, Betapolyomavirus macacae
The source made the active and inactive calls.
measured parameter: IC50

Given O=C(Nc1ccc(O)cc1)C1CC=CCC1 (centres undefined) , respond with its IC50.
16.4 µM (active)

###

Target: Luciferin 4-monooxygenase (Photinus pyralis, UniProt P08659)
Sequence (P08659 whole entry): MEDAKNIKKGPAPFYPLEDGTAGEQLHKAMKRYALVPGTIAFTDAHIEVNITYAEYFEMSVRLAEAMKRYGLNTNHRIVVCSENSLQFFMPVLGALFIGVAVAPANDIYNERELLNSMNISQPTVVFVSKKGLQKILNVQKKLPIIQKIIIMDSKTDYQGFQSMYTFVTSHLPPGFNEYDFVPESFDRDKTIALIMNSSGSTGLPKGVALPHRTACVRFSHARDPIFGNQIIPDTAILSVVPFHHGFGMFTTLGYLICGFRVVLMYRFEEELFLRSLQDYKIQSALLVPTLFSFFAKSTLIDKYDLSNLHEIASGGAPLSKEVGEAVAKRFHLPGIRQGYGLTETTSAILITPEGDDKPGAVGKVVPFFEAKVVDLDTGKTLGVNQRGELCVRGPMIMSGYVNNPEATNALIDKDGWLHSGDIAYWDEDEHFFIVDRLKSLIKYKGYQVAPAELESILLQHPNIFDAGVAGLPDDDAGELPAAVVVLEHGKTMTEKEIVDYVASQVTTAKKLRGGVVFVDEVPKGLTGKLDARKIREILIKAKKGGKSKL
Assay: Counter Screen for Luciferase-based Assay Positives. [Related pubchem assays: 620, 618, 411 ]
The source made the active and inactive calls.
measured parameter: EC50

{"columns": ["compound structure string", "recorded result"],
 "data": [
  ["CCc1ccc(NC(=O)c2noc3c2CCC3)cc1", "1400 nM (active)"]
]}

Name the recorded EC50 of the item Clc1ccc(-c2nnc(N3CCCC3)nn2)cc1 in your answer.
1390 nM (active)

Report measured EC50; entry is Nc1ccc(C(=O)Nc2nc3ccccc3s2)cc1
320 nM (active)

Tell me measured EC50 for COc1ccc(-c2cn3nc4c(nc3n2)CCCC4)cc1 please.
460 nM (active)

###

List of IC50 values.
Biological target: Nonstructural protein 1 (Influenza A virus)
Sequence (Q194T2 whole entry): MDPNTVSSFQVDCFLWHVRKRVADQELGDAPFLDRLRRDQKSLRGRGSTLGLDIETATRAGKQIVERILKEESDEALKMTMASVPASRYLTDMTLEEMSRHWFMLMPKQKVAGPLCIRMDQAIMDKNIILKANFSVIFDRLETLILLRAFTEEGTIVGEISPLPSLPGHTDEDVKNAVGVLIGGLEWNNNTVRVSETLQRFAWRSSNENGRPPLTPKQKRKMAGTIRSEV
Format: functional, Influenza A virus (A/California/07/2009(H1N1))
Activity calls are given as the source filed them.

Recorded results for 2 compounds are shown here.
{"columns": ["compound", "IC50"],
 "data": [
  ["Cc1ccc(O)c(/C=N/NC(=O)CN2CCCC2)c1", "15.3 µM (active)"],
  ["O=C1NC(=S)N(C2CC2)C(=O)/C1=C/NNC(=O)c1ccccc1O", "16.2 µM (active)"]
]}

Please list IC50 recorded for the compound CC(=NNc1nc2ccccc2o1)c1cc2ccccc2cn1
7.16 µM (active)

Look up IC50 of Cc1cc2c(=Cc3ccc(N(C)C)cc3)c3ccccc3n2[n+]1C and report it.
20.9 µM (active)

###

Molecular target: Glucose-6-phosphate 1-dehydrogenase (Homo sapiens)
Sequence (P11413 whole entry): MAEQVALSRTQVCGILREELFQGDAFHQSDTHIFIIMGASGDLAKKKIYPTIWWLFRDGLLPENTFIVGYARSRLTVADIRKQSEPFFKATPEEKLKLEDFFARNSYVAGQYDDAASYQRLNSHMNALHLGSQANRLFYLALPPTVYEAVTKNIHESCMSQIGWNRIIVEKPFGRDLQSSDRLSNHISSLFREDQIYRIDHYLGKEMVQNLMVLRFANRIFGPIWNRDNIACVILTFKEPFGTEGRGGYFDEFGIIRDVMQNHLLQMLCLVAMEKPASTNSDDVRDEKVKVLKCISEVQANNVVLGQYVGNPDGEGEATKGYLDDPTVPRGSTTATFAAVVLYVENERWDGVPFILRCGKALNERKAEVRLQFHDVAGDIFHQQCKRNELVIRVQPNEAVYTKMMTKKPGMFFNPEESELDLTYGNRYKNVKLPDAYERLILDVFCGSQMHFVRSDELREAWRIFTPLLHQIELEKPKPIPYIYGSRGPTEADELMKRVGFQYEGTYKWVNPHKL
Experiment: human G6PD enzyme inhibitors, dose response, selectivity assay for P. falciparum G6PD inhibitor project, biochemical, fluorescence (AID 504792)
Type: functional
Activity calls are given as the source filed them.
measured parameter: IC50

Examples from the recorded data:
{"columns": ["compound structure string", "target of assay", "IC50"],
 "data": [
  ["CCOc1ccccc1C=NNC(=O)CCCCC(=O)NN=Cc1ccccc1OCC", "Glucose-6-phosphate 1-dehydrogenase (Homo sapiens)", "> 80 µM (inactive)"],
  ["CC(=O)OCCCNc1cc(Sc2nc3ccccc3s2)c2nonc2c1[N+](=O)[O-]", "Glucose-6-phosphate 1-dehydrogenase (Homo sapiens)", "> 80 µM (inactive)"],
  ["CN(C)c1ccc(Cc2cc3c(O)ccc(O)c3cc(Cc3ccc(N(C)C)cc3)c2=O)cc1", "Glucose-6-phosphate 1-dehydrogenase (Homo sapiens)", "56.7 µM (inactive)"]
]}

Moving on to another molecule below.
Using known records, supply IC50 for O=[N+]([O-])c1cccc(SSc2cccc([N+](=O)[O-])c2)c1
> 80 µM (inactive)

###

The entries below are paired with their reported EC50.
Molecular target: RNA-binding protein pos-1 (Caenorhabditis elegans)
Sequence (G5EF15 whole entry, the tested form may be a part): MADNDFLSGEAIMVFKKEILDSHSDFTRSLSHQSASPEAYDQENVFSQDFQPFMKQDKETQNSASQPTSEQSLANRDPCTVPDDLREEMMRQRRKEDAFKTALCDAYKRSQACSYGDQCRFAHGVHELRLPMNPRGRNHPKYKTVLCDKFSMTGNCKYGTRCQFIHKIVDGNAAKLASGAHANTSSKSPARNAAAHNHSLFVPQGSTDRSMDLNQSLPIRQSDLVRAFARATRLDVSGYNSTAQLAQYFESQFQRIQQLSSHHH
Assay: inhibitors of POS-1/mex-3 RNA binding, dose response, biochemical, fluorescence polarization (AID 1964);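 also: purified POS-1 fused to maltose binding protein made in E. coli; potency of compounds blocking POS-1 binding to fluorescent RNA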
Active and inactive are the calls of the source.

Please review the following examples before continuing.
{"columns": ["molecule", "EC50"],
 "data": [
  ["O=C(CC1Nc2ccccc2NC1=O)c1ccccc1 (stereo unspecified)", "30.6 µM (active)"],
  ["Cc1cc(/C=C2\\SC(=O)N(C)C2=O)c(C)n1-c1cccc(C(=O)O)c1", "> 300 µM (not active)"],
  ["COc1ccccc1NCC(=O)N/N=C/c1c(O)ccc2ccccc12", "> 300 µM (not active)"],
  ["CC(C)C1Nc2c(O)cc(Cl)c([N+](=O)[O-])c2C2C=CCC21 (stereo unspecified)", "> 300 µM (not active)"],
  ["Cc1ccc(NC(=O)CSc2nccc(=O)[nH]2)c(S(=O)(=O)N2CCOCC2)c1", "> 300 µM (not active)"]
]}

In one line, give reported EC50 of the entry COc1cc(/N=C/c2c(O)oc3ccccc3c2=O)c(OC)cc1Cl .
> 300 µM (inconclusive)
